pKd: −log10 of the molar value.
Task for the reader: assign each of the following compounds its reported pKd.

Prompt: What measured pKd is associated with "CCOc1cc2ncc(C#N)c(Nc3ccc(F)c(Cl)c3)c2cc1NC(=O)/C=C/CN(C)C" on Ribosomal protein S6 kinase alpha-2 (Homo sapiens, UniProt Q15349)?
Completion: 5.06

Prompt: What measured pKd is associated with "NC(=O)c1ccc(-c2nc(-c3ccc4c(c3)OCO4)c(-c3ccccn3)[nH]2)cc1" on Ribosomal protein S6 kinase alpha-2 (Homo sapiens, UniProt Q15349)?
Completion: < 5.00

Prompt: What measured pKd is associated with "Oc1ccc(-c2nc(-c3ccncc3)c(-c3ccc(F)cc3)[nH]2)cc1" on Ribosomal protein S6 kinase alpha-2 (Homo sapiens, UniProt Q15349)?
Completion: < 5.00

Prompt: What measured pKd is associated with "COCC(=O)NC/C=C/c1ccc2ncnc(Nc3ccc(Oc4ccc(C)nc4)c(C)c3)c2c1" on Ribosomal protein S6 kinase alpha-2 (Homo sapiens, UniProt Q15349)?
Completion: < 5.00

Prompt: What measured pKd is associated with "Nc1nc(Nc2ccc(S(N)(=O)=O)cc2)nn1C(=O)c1c(F)cccc1F" on Ribosomal protein S6 kinase alpha-2 (Homo sapiens, UniProt Q15349)?
Completion: < 5.00

---

Target: Tyrosine-protein kinase Fer (Homo sapiens, UniProt P16591)
Sequence (P16591 whole entry): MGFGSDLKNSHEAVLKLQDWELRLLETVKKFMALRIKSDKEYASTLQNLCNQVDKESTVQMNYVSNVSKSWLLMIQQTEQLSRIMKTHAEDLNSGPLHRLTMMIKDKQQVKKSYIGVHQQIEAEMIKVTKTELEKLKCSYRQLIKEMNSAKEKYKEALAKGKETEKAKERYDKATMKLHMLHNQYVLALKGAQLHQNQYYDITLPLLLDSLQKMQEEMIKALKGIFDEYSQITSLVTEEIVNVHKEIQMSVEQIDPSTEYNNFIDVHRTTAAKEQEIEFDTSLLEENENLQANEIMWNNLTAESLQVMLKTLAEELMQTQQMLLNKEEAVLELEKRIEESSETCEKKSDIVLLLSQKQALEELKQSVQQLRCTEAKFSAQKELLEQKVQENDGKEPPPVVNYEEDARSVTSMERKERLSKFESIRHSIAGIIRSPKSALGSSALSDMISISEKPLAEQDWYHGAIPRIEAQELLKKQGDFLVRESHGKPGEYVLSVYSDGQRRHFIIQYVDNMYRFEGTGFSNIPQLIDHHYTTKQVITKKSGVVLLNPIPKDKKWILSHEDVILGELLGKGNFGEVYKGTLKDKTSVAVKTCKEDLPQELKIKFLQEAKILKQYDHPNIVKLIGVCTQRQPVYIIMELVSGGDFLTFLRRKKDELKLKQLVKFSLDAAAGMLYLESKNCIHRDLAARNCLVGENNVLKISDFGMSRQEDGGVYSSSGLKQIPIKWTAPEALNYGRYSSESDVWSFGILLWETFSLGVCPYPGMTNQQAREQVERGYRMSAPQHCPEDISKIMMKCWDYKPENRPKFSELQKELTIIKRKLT
pKd: −log10 of the molar value.
measuredMetric: pKd

Prompt: Requested field: pKd. Item: "Oc1ccc(-c2nc(-c3ccncc3)c(-c3ccc(F)cc3)[nH]2)cc1"
Completion: < 5.00

Prompt: Requested field: pKd. Item: "NC(=O)c1ccc(-c2nc(-c3ccc4c(c3)OCO4)c(-c3ccccn3)[nH]2)cc1"
Completion: < 5.00

Prompt: Requested field: pKd. Item: "Nc1nc(Nc2ccc(S(N)(=O)=O)cc2)nn1C(=O)c1c(F)cccc1F"
Completion: < 5.00

Prompt: Requested field: pKd. Item: "CCOc1cc2ncc(C#N)c(Nc3ccc(F)c(Cl)c3)c2cc1NC(=O)/C=C/CN(C)C"
Completion: 5.06

Prompt: Requested field: pKd. Item: "COCC(=O)NC/C=C/c1ccc2ncnc(Nc3ccc(Oc4ccc(C)nc4)c(C)c3)c2c1"
Completion: < 5.00

---

pKd: −log10 of the molar value.
measuredMetric: pKd

Prompt: What measured pKd is associated with COCC(=O)NC/C=C/c1ccc2ncnc(Nc3ccc(Oc4ccc(C)nc4)c(C)c3)c2c1 [CP-724714] on Glycogen synthase kinase-3 beta (Homo sapiens)?
Completion: < 5.00

Prompt: What measured pKd is associated with Oc1ccc(-c2nc(-c3ccncc3)c(-c3ccc(F)cc3)[nH]2)cc1 [SB-202190] on Glycogen synthase kinase-3 beta (Homo sapiens)?
Completion: 5.57

Prompt: What measured pKd is associated with CCOc1cc2ncc(C#N)c(Nc3ccc(F)c(Cl)c3)c2cc1NC(=O)/C=C/CN(C)C [PELITINIB] on Glycogen synthase kinase-3 beta (Homo sapiens)?
Completion: < 5.00

Prompt: What measured pKd is associated with NC(=O)c1ccc(-c2nc(-c3ccc4c(c3)OCO4)c(-c3ccccn3)[nH]2)cc1 [SB-431542] on Glycogen synthase kinase-3 beta (Homo sapiens)?
Completion: < 5.00

---

pKd: −log10 of the molar value.
Here's a batch of compounds along with measured pKd for Tyrosine-protein kinase ABL1 (Homo sapiens, UniProt P00519, T315I).

Prompt: What measured pKd is associated with Oc1ccc(-c2nc(-c3ccncc3)c(-c3ccc(F)cc3)[nH]2)cc1 [SB-202190] on Tyrosine-protein kinase ABL1 (Homo sapiens, UniProt P00519, T315I)?
Completion: < 5.00

Prompt: What measured pKd is associated with NC(=O)c1ccc(-c2nc(-c3ccc4c(c3)OCO4)c(-c3ccccn3)[nH]2)cc1 [SB-431542] on Tyrosine-protein kinase ABL1 (Homo sapiens, UniProt P00519, T315I)?
Completion: < 5.00

Prompt: What measured pKd is associated with COCC(=O)NC/C=C/c1ccc2ncnc(Nc3ccc(Oc4ccc(C)nc4)c(C)c3)c2c1 [CP-724714] on Tyrosine-protein kinase ABL1 (Homo sapiens, UniProt P00519, T315I)?
Completion: < 5.00

---

Here's a batch of compounds along with measured pKd for Focal adhesion kinase 1 (Homo sapiens, UniProt Q05397).
pKd: −log10 of the molar value.

Prompt: Requested field: pKd. Item: "NC(=O)c1ccc(-c2nc(-c3ccc4c(c3)OCO4)c(-c3ccccn3)[nH]2)cc1"
Completion: < 5.00

Prompt: Requested field: pKd. Item: "Oc1ccc(-c2nc(-c3ccncc3)c(-c3ccc(F)cc3)[nH]2)cc1"
Completion: < 5.00

Prompt: Requested field: pKd. Item: "COCC(=O)NC/C=C/c1ccc2ncnc(Nc3ccc(Oc4ccc(C)nc4)c(C)c3)c2c1"
Completion: < 5.00

---

Here's a batch of compounds along with measured pKd for eIF-2-alpha kinase GCN2 (Homo sapiens, UniProt Q9P2K8, S808G).
By convention, pKd is the negative base-10 log of a molar concentration.

Prompt: Requested field: pKd. Item: "Nc1nc(Nc2ccc(S(N)(=O)=O)cc2)nn1C(=O)c1c(F)cccc1F"
Completion: 5.41

Prompt: Requested field: pKd. Item: "CCOc1cc2ncc(C#N)c(Nc3ccc(F)c(Cl)c3)c2cc1NC(=O)/C=C/CN(C)C"
Completion: 6.54

---

Here's a batch of compounds along with measured Kd for UniProtKB P09769.
Sequence (P09769 whole entry): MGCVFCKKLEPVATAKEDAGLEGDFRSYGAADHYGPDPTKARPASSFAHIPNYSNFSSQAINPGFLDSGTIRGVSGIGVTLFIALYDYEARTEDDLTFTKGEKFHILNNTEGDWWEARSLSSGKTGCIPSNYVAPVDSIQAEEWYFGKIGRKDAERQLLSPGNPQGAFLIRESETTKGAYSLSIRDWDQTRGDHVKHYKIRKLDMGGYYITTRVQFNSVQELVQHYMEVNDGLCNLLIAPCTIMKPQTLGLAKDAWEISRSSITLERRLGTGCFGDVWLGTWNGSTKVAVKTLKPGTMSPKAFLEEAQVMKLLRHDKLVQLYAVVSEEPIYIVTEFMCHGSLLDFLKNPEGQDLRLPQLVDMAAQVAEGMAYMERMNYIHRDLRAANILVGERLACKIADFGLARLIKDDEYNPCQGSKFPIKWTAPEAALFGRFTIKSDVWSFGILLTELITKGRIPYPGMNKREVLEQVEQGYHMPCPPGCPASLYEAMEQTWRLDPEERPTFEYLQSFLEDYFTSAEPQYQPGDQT

Prompt: What measured Kd is associated with "COCC(=O)NC/C=C/c1ccc2ncnc(Nc3ccc(Oc4ccc(C)nc4)c(C)c3)c2c1" on UniProtKB P09769?
Completion: > 10 µM

Prompt: What measured Kd is associated with "CCOc1cc2ncc(C#N)c(Nc3ccc(F)c(Cl)c3)c2cc1NC(=O)/C=C/CN(C)C" on UniProtKB P09769?
Completion: 0.95 µM

Prompt: What measured Kd is associated with "NC(=O)c1ccc(-c2nc(-c3ccc4c(c3)OCO4)c(-c3ccccn3)[nH]2)cc1" on UniProtKB P09769?
Completion: > 10 µM

Prompt: What measured Kd is associated with "Oc1ccc(-c2nc(-c3ccncc3)c(-c3ccc(F)cc3)[nH]2)cc1" on UniProtKB P09769?
Completion: > 10 µM

---

Task for the reader: assign each of the following compounds its reported pKd.
Biological target: Serine/threonine-protein kinase NLK (Homo sapiens, UniProt Q9UBE8)
Sequence (Q9UBE8 whole entry): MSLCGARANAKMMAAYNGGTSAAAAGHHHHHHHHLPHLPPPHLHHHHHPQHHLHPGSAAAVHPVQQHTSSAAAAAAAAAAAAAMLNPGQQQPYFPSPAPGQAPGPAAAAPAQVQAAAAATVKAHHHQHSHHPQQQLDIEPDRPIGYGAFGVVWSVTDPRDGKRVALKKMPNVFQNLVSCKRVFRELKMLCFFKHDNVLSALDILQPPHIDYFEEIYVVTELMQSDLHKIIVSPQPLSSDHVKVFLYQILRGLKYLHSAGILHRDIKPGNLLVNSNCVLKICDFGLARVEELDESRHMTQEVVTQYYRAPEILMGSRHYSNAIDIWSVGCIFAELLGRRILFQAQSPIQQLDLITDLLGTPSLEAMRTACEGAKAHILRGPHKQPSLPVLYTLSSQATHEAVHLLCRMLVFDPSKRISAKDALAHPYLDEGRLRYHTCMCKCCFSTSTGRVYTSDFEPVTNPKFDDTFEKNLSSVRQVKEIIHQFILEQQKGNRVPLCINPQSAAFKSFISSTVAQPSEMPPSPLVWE
pKd: −log10 of the molar value.

Prompt: Requested field: pKd. Item: CCOc1cc2ncc(C#N)c(Nc3ccc(F)c(Cl)c3)c2cc1NC(=O)/C=C/CN(C)C [PELITINIB]
Completion: < 5.00

Prompt: Requested field: pKd. Item: Nc1nc(Nc2ccc(S(N)(=O)=O)cc2)nn1C(=O)c1c(F)cccc1F [JNJ-7706621]
Completion: < 5.00

Prompt: Requested field: pKd. Item: NC(=O)c1ccc(-c2nc(-c3ccc4c(c3)OCO4)c(-c3ccccn3)[nH]2)cc1 [SB-431542]
Completion: < 5.00

Prompt: Requested field: pKd. Item: COCC(=O)NC/C=C/c1ccc2ncnc(Nc3ccc(Oc4ccc(C)nc4)c(C)c3)c2c1 [CP-724714]
Completion: < 5.00

Prompt: Requested field: pKd. Item: Oc1ccc(-c2nc(-c3ccncc3)c(-c3ccc(F)cc3)[nH]2)cc1 [SB-202190]
Completion: 7.55

---

Task for the reader: assign each of the following molecules its reported Kd.

Prompt: What measured Kd is associated with Oc1ccc(-c2nc(-c3ccncc3)c(-c3ccc(F)cc3)[nH]2)cc1 [SB-202190] on Hepatocyte growth factor receptor (Homo sapiens)?
Completion: > 10 µM

Prompt: What measured Kd is associated with NC(=O)c1ccc(-c2nc(-c3ccc4c(c3)OCO4)c(-c3ccccn3)[nH]2)cc1 [SB-431542] on Hepatocyte growth factor receptor (Homo sapiens)?
Completion: > 10 µM

Prompt: What measured Kd is associated with CCOc1cc2ncc(C#N)c(Nc3ccc(F)c(Cl)c3)c2cc1NC(=O)/C=C/CN(C)C [PELITINIB] on Hepatocyte growth factor receptor (Homo sapiens)?
Completion: 6.2 µM

Prompt: What measured Kd is associated with COCC(=O)NC/C=C/c1ccc2ncnc(Nc3ccc(Oc4ccc(C)nc4)c(C)c3)c2c1 [CP-724714] on Hepatocyte growth factor receptor (Homo sapiens)?
Completion: > 10 µM
